Test system: Vesicular stomatitis virus
method: microbe, parasite or virus in culture
Assay type: cell-based
conditionSet: read-out: MIC50 Vesicular stomatitis virus
// reported MIC50 for each item listed

[
  {
    "compound": "Nc1nc(O)c2ncn(COC(CO)CO)c2n1 [Ganciclovir]",
    "testedTarget": "Vesicular stomatitis virus",
    "experimentalReadout": "MIC50",
    "result": "> 100 µM"
  },
  {
    "compound": "Nc1ccn(C[C@@H](CO)OCP(=O)(O)O)c(=O)n1 [Cidofovir]",
    "testedTarget": "Vesicular stomatitis virus",
    "experimentalReadout": "MIC50",
    "result": "> 250 µM"
  },
  {
    "compound": "O=c1[nH]c(=O)n([C@H]2C[C@H](O)[C@@H](CO)O2)cc1/C=C/Br [Brivudine]",
    "testedTarget": "Vesicular stomatitis virus",
    "experimentalReadout": "MIC50",
    "result": "> 250 µM"
  }
]

Param item: Nc1nc2c(ncn2COCCO)c(=O)[nH]1 [Acyclovir] ; param system: Vesicular stomatitis virus; output MIC50: 250 µM
